Molecular target: Cellular tumor antigen p53 (Homo sapiens)
Assay: ATG_p53_CIS: Attagene CIS-FACTORIAL HepG2 Assay for human p53 Transcription Factor (AID 2282994)
Conditions: HepG2 p53 cis-element reporter, Attagene mRNA; actives raise or lower the signal
Activity calls are given as the source filed them. How the source made its calls: active means hit-call score of the fitted dose curve at least 0.9, where 1 is the maximum; inactive means score below 0.9.
Please state which outcome applies, choosing from true for active, false for inactive

> print(dat)
                                  compound                                    target  qualitative.label
1  CNC(=C[N+](=O)[O-])NCCSCc1csc(CN(C)C)n1  Cellular tumor antigen p53 (Homo sapiens)              false
2                           C=CN1CCCCCC1=O  Cellular tumor antigen p53 (Homo sapiens)              false

// param item: c1cc(N(CC2CO2)CC2CO2)ccc1Cc1ccc(N(CC2CO2)CC2CO2)cc1 (centres undefined) ; yields the recorded call
true

Here is the next compound: `CCO[Si](OCC)(OCC)c1ccccc1`
false

Same again, this time with `CC/C=C\CC/C=C/C(OCC)OCC`
true

Param item: `O=C1CCCCCCCCCCCCCC1`
false

`CCCCCCCCCCCCCCCCCC[N+](C)(C)C` ?
false

Proceed to CCCCC(CC)COC(=O)CS (centres undefined)
false

###

Molecular target: Cellular tumor antigen p53 (Homo sapiens) (UniProt P04637)
Sequence (P04637 whole entry, looked up): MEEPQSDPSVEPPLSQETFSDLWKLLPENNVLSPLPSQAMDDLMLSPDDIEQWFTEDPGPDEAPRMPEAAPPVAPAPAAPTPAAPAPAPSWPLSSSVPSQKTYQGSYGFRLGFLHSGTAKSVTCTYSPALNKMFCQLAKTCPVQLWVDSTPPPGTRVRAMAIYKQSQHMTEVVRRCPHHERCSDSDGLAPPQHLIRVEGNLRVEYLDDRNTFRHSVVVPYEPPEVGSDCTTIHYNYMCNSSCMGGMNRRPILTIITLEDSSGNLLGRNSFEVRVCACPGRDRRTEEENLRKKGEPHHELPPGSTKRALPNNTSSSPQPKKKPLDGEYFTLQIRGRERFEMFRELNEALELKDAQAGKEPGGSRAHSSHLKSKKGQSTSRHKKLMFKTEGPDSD
Test: TOX21_p53_BLA_p4_ratio: Tox21 HCT-116 p53 Agonism Beta-lactamase Assay, Ratio, Phase 4 (AID 2283601)
Procedure: TOX21_p53_BLA_p4 is a cell-based, single-readout assay that uses HCT116, a human intestinal cell line, […] in a 1536-well plate.TOX21_p53_BLA_p4_ratio is an assay readout measuring reporter gene via receptor activity and designed using inducible reporter (beta lactamase induction) detected with GAL4 b-lactamase reporter gene. […] This assay endpoint, TOX21_p53_BLA_p4_ratio, was analyzed in the positive analysis fitting direction relative to DMSO as the negative control and baseline of activity. […]
Inconclusive results are not listed. The source made the active and inactive calls. Rule for the calls: active = hit-call score of the fitted dose curve at least 0.9, where 1 is the maximum; inconclusive = response in the unintended direction; inactive = score below 0.9.
# valid calls are active, inactive; nothing else

compound	qualitative_label
O=C(O)Cc1nn(Cc2ccc(Br)cc2F)c(=O)c2ccccc12	inactive
CC1(C)S[C@@H]2[C@H](N=CN3CCCCCC3)C(=O)N2[C@H]1C(=O)O	inactive
COc1cc2c(c(OC)c1OC)-c1c(cc3c(c1OC)OCO3)C[C@@H](C)[C@](C)(O)C2	inactive

How did this test come out for `O=C(O)c1ccccc1Cl` ?
inactive

Next: `COC(=O)[C@H]1[C@H]2C[C@@H]3c4[nH]c5cc(OC)ccc5c4CCN3C[C@H]2C[C@@H](OC(=O)/C=C/c2cc(OC)c(OC)c(OC)c2)[C@@H]1OC`
inactive

And the next one, CCCCN1CCCC1C(=O)Nc1c(C)cc(C)cc1C (configuration not stated) ?
inactive

###

Target: Nuclear receptor subfamily 1 group I member 2 (Homo sapiens) (UniProt O75469)
Sequence (O75469 whole entry, looked up): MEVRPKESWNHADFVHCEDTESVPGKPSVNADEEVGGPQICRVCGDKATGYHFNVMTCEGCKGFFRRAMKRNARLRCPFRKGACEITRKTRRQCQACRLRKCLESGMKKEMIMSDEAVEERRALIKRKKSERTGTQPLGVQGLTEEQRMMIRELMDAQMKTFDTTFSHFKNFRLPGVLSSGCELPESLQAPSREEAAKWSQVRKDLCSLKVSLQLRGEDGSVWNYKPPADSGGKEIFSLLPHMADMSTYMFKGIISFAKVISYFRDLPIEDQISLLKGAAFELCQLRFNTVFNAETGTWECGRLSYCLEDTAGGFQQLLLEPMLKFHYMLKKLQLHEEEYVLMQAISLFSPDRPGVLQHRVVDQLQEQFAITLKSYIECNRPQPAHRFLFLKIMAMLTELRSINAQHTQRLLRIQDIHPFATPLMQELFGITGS
Assay: ATG_PXR_TRANS: Attagene TRANS-FACTORIAL HepG2 Assay for human Pregnane X Receptor (PXR) (AID 2283008)
Results filed as inconclusive are left out. Active and inactive are the calls of the source. Rule for the calls: active = hit-call score of the fitted dose curve at least 0.9, where 1 is the maximum; inconclusive = response in the unintended direction; inactive = score below 0.9.
Parameter call: string, one of label 1 (active), label 0 (inactive)

Before answering, review these 3 worked examples.
> print(dat)
                          molecule                                    target  qualitative.label
1  CCCCCCOC(=O)CCCCCCCC(=O)OCCCCCC  Nuclear receptor subfamily 1 group I member 2 (Homo sapiens) (UniProt O75469)            label 0
2                 CC(=O)CCc1ccccc1  Nuclear receptor subfamily 1 group I member 2 (Homo sapiens) (UniProt O75469)            label 0
3                    CC/C=C\CCCCCO  Nuclear receptor subfamily 1 group I member 2 (Homo sapiens) (UniProt O75469)            label 0

Would you mind telling me which call this test gave `Nc1ccc(S(=O)(=O)Nc2cnc3ccccc3n2)cc1` ?
label 0

###

Assay: BSK_3C_Vis: BioMAP Diversity Plus: 3C Assay for Morphology Visualization (AID 2283025);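 further: fitted both ways so gain or loss versus DMSO counts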
Settings: primary human endothelial cells (HUVEC)
Activity calls are given as the source filed them. How the source made its calls: active means hit-call score of the fitted dose curve at least 0.9, where 1 is the maximum; inactive means score below 0.9.
Hi there, use one of these labels in your reply, thanks! t for active, f for inactive

Outcome logged for CCCCCCCCCC/C=C/C1CC(=O)OC1=O (configuration not stated) in this assay:
f

Try the molecule CCCCCCC(O)CCCCCCCCCCC(=O)OC (configuration not stated)
f

# repeat for `Cc1cc(-n2nc3ccc(Cl)cc3n2)c(O)c(C(C)(C)C)c1`
f

Ok, now `Sc1nc2ccccc2s1`
f

For CN(C)CCC(c1ccc(Cl)cc1)c1ccccn1 (configuration not stated) then?
f

Subsequent entry: `CN(C)c1ccc(C(c2ccccc2)c2ccc(N(C)C)cc2)cc1`
t

Try the molecule `CCCCCCCCCCCCCCCCCC[N+](C)(C)C`
t

###

Assay: TOX21_p53_BLA_p5_viability: Viability Assessment in the Tox21 HCT-116 p53 Agonism Beta-lactamase Assay, Phase 5 (AID 2283600)
Results filed as inconclusive are left out. Calls of active or inactive are those of the source. The calls were made as follows: active = hit-call score of the fitted dose curve at least 0.9, where 1 is the maximum; inconclusive = response in the unintended direction; inactive = score below 0.9.
Your response should consist of one outcome taken from active, inactive

Here are 10 compounds together with their reported answers.
> print(dat)
                                    compound  qualitative.label
 1  COC(=O)C1=C(C)NC(C)=C(C(=O)O[C@@H]2CCCN(Cc3ccccc3)C2)[C@@H]1c1cccc([N+](=O)[O-])c1           inactive
 2                       O=P(O)(O)CP(=O)(O)O           inactive
 3  CC(C)(C)NCC(O)c1ccc(O)c(CO)c1 (stereo not given)           inactive
 4  CN1C(C(=O)Nc2ccccn2)=C(O)c2ccccc2S1(=O)=O           inactive
 5     COc1ccccc1OCC(O)CO (stereo not given)           inactive
 6                    CC1=CC(C)(C)Nc2ccccc21           inactive
 7  CCCCCCCCCCCCCCCC(=O)O[C@@H]1[C@@H](O)[C@@H](O)[C@@H]([C@H](NC(=O)[C@@H]2C[C@@H](CCC)CN2C)[C@H](C)Cl)O[C@@H]1SC           inactive
 8      C=COCC1CCC(CO)CC1 (stereo not given)           inactive
 9  CC(=O)O[C@]1(C(C)=O)CC[C@H]2[C@@H]3C=C(Cl)C4=CC(=O)CC[C@]4(C)[C@H]3CC[C@@]21C           inactive
10    COc1ccc(C(=O)Nc2ccccc2)cc1[N+](=O)[O-]           inactive

Could you now consider this next compound?
What did the test return for `O=C(O)c1ccc(-n2nc(-c3ccccc3O)nc2-c2ccccc2O)cc1` ?
inactive

###

Target: Cellular tumor antigen p53 (Homo sapiens)
Assay: TOX21_p53_BLA_p4_ratio: Tox21 HCT-116 p53 Agonism Beta-lactamase Assay, Ratio, Phase 4 (AID 2283601)
Records with an inconclusive call do not appear. Activity calls are given as the source filed them. How the source made its calls: active means hit-call score of the fitted dose curve at least 0.9, where 1 is the maximum; inconclusive means response in the unintended direction; inactive means score below 0.9.
Permitted responses: active, inactive

molecule	qualitative_label
CCC(C)(C)C(=O)O	inactive

Recorded test outcome, item `O=C(O)c1cccc(O)c1`
inactive

Cool, now `CCOC(=O)COc1ccc(C)cc1`
inactive

###

Target: Cellular tumor antigen p53 (Homo sapiens) (UniProt P04637)
Assay: TOX21_p53_BLA_p5_ratio: Tox21 HCT-116 p53 Agonism Beta-lactamase Assay, Ratio, Phase 5 (AID 2283599)
Results filed as inconclusive are left out. Active and inactive are the calls of the source. How the source made its calls: active means hit-call score of the fitted dose curve at least 0.9, where 1 is the maximum; inconclusive means response in the unintended direction; inactive means score below 0.9.
Log the outcome using a class from y = active, n = inactive

Consider the worked cases shown below.
molecule	qualitative_label
Cc1cn([C@H]2C[C@H](O)[C@@H](CO)O2)c(=O)[nH]c1=O	n
O=C(O)c1cc(-c2ccc(F)cc2F)ccc1O	n
CN[C@@H]1[C@@H](O[C@H]2O[C@H](CO)[C@@H](N)[C@H](O)[C@H]2O)O[C@H]2C[C@@H](N)[C@@H](O[C@H]3[C@H](O)[C@@H](O)[C@H](N)C[C@@H]3N)O[C@@H]2[C@@H]1O	n
c1ccc2c(c1)OCC(CN1CCCCC1)O2 (stereo not given)	n
C[C@@]12C(=O)OC(=O)[C@]1(C)C1CCC2O1	n
O=C1Nc2ccccc2C1=O	n
O=C(O)c1cc(O)c2c(c1)[C@H]([C@H]1c3cc(C(=O)O)cc(O)c3C(=O)c3c(O[C@@H]4O[C@H](CO)[C@@H](O)[C@H](O)[C@H]4O)cccc31)c1cccc(O[C@@H]3O[C@H](CO)[C@@H](O)[C@H](O)[C@H]3O)c1C2=O	n
CC[N+](CC)(CC)CCOc1ccc(/C=C/c2ccccc2)cc1	n

Kindly provide the recorded test outcome for the following molecule: `O=C(O)c1ccc(S(=O)(=O)N(Cl)Cl)cc1`
n

Also `O=Cc1cccc(Br)c1` ?
n

Try the molecule CCCNC(C)C(=O)Nc1ccccc1C (stereo not given)
n
